biological target: 6G11 (BI‐1206), full‐length antibody containing the PGLALA Fc mutations (human); assay: ELISA
Sequence (VH, as listed by the source, chain 1 of 2): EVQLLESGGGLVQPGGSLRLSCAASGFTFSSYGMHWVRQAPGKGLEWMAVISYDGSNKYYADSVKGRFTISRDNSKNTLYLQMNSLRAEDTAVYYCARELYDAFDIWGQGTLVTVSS
Sequence (VL, as listed by the source, chain 2 of 2): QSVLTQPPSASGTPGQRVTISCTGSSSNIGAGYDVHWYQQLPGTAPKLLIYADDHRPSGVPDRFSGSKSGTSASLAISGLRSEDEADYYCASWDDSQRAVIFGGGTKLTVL
measured_endpoint: EC50 (nM)
State the answer as a number, implicitly in nM.

Look over these answered cases.
[[record]]
binder = "S2B R101A scFv, solitary (scFv, V domains shown) VH: AVTLDESGGGLQTPGGGLSLVCKASGFTFSSYSMVWVRQAPSKRLEWVAGIYSSATWTYYAPAVKGRATISRDNGQSTVRLQLNDLRAEDTGTYFCAKTSASGWTAYSASAIDAWGHGTEVIV VL: ALTQPSSVSANPGETVKITCSGGSSYYGWYQQKSPGSAPVTVIYSNDKRPSDIPSRFSGSTSGSTATLTITGVQADDEAVYFCGGYDSNIHGGIFGAGTTLTVL"
measured_endpoint = "EC50"
endpoint_result = 3.7

[[record]]
binder = "S2B Y52A scFv, solitary (scFv, V domains shown) VH: AVTLDESGGGLQTPGGGLSLVCKASGFTFSSYSMVWVRQAPSKRLEWVAGIASSATWTYYAPAVKGRATISRDNGQSTVRLQLNDLRAEDTGTYFCAKTSRSGWTAYSASAIDAWGHGTEVIV VL: ALTQPSSVSANPGETVKITCSGGSSYYGWYQQKSPGSAPVTVIYSNDKRPSDIPSRFSGSTSGSTATLTITGVQADDEAVYFCGGYDSNIHGGIFGAGTTLTVL"
measured_endpoint = "EC50"
endpoint_result = 11.2

[[record]]
binder = "S2B W104A scFv, solitary (scFv, V domains shown) VH: AVTLDESGGGLQTPGGGLSLVCKASGFTFSSYSMVWVRQAPSKRLEWVAGIYSSATWTYYAPAVKGRATISRDNGQSTVRLQLNDLRAEDTGTYFCAKTSRSGATAYSASAIDAWGHGTEVIV VL: ALTQPSSVSANPGETVKITCSGGSSYYGWYQQKSPGSAPVTVIYSNDKRPSDIPSRFSGSTSGSTATLTITGVQADDEAVYFCGGYDSNIHGGIFGAGTTLTVL"
measured_endpoint = "EC50"
endpoint_result = 6.7


Lookup result for S2B S164A scFv, solitary (scFv, V domains shown) VH: AVTLDESGGGLQTPGGGLSLVCKASGFTFSSYSMVWVRQAPSKRLEWVAGIYSSATWTYYAPAVKGRATISRDNGQSTVRLQLNDLRAEDTGTYFCAKTSRSGWTAYSASAIDAWGHGTEVIV VL: ALTQPSSVSANPGETVKITCSGGASYYGWYQQKSPGSAPVTVIYSNDKRPSDIPSRFSGSTSGSTATLTITGVQADDEAVYFCGGYDSNIHGGIFGAGTTLTVL ; measured EC50: 2.7

Each recorded value in this set is attributed to paper PMC11629141.
